Overview of reported Dmax across a group of compounds:
- measurement target: NEK7 (Homo sapiens (Human), UniProt Q8TDX7+Q96SW2)
- Sequence (Q8TDX7 whole entry): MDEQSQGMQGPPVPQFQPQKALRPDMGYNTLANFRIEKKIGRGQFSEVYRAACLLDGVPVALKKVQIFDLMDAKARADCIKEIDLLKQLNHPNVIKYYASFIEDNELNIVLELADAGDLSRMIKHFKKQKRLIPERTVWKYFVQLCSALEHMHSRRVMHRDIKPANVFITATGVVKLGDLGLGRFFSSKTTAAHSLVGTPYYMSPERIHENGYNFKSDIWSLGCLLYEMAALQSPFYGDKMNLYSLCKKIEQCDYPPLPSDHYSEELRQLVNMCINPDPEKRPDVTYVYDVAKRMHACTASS
- Sequence (Q96SW2 whole entry): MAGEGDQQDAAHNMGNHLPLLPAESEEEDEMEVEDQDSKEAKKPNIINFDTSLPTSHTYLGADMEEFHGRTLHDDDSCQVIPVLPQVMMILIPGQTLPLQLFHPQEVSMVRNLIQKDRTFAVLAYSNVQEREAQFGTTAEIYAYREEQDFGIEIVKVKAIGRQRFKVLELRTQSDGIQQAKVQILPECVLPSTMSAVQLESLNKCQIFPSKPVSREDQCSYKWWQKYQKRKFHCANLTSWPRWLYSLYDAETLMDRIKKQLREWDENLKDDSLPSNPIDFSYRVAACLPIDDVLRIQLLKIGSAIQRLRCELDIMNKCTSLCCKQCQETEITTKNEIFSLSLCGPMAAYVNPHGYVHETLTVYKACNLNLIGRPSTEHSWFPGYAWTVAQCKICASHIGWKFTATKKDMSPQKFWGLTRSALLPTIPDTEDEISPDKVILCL
- Sequence (Q16531 2-1140 partner): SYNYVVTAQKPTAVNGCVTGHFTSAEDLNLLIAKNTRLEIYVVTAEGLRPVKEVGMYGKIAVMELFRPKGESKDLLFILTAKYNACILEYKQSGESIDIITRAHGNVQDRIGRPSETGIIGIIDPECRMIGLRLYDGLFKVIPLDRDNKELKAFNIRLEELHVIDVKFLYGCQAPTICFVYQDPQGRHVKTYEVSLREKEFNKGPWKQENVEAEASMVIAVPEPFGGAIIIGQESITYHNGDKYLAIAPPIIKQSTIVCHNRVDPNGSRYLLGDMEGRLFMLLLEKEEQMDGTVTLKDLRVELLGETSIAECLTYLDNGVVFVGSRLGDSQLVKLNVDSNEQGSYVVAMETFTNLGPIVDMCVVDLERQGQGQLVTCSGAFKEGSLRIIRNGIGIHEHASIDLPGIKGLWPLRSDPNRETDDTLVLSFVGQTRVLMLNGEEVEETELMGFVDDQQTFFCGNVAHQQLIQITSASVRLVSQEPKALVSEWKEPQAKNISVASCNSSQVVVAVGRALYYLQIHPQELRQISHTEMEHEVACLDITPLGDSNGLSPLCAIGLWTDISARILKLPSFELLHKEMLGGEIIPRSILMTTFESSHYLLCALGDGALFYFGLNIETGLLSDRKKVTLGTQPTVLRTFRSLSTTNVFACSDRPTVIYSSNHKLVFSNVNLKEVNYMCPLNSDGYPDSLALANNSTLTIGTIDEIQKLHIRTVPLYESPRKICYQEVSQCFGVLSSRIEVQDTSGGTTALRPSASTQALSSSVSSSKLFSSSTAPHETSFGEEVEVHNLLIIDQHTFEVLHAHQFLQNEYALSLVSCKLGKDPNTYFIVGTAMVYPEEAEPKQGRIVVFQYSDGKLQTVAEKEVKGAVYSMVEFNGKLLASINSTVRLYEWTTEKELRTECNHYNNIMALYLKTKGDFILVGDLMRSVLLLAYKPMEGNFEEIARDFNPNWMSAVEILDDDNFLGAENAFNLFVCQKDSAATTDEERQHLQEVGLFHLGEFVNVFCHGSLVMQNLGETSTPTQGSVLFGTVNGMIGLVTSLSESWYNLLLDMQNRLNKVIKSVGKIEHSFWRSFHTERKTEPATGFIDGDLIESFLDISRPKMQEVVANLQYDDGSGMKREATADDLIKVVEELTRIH
- assay: NEK7 NanoBiT degradation assay in Cal51 NEK7 NanoBiT cell line
- Format: cell-based
- conditions used: CAL-51; NEK7 degradation, Cal51 NEK7 NanoBiT cells, 24 hours; read-out: NanoBiT Dmax
endpoint: Dmax

{"compound": "CC(C)(C(=O)NCc1cc(Cl)c(C2CCC(=O)NC2=O)c(Cl)c1)c1ncc(CC(F)F)cn1 (stereo not drawn)", "measurement target": "NEK7 (Homo sapiens (Human), UniProt Q8TDX7+Q96SW2)", "recorded result": "50 to 75%"}
{"compound": "Cn1cnnc1C(C)(C)C(=O)NCc1cc(Cl)c(C2CCC(=O)NC2=O)c(Cl)c1 (stereo not drawn)", "measurement target": "NEK7 (Homo sapiens (Human), UniProt Q8TDX7+Q96SW2)", "recorded result": "≤ 50%"}
{"compound": "CC(C)(C(=O)NCc1cc(F)c(C2CCC(=O)NC2=O)c(Cl)c1)c1ccc(OC(F)(F)F)nn1 (stereo not drawn)", "measurement target": "NEK7 (Homo sapiens (Human), UniProt Q8TDX7+Q96SW2)", "recorded result": "50 to 75%"}
{"compound": "CC(C)(C(=O)NCc1cc(Cl)c(C2CCC(=O)NC2=O)c(Cl)c1)c1ccc(=O)[nH]c1 (stereo not drawn)", "measurement target": "NEK7 (Homo sapiens (Human), UniProt Q8TDX7+Q96SW2)", "recorded result": "> 75%"}
{"compound": "CC(C)(C(=O)NCc1cc(Cl)c(C2CCC(=O)NC2=O)c(Cl)c1)c1cccc(C#N)c1 (stereo not drawn)", "measurement target": "NEK7 (Homo sapiens (Human), UniProt Q8TDX7+Q96SW2)", "recorded result": "> 75%"}
{"compound": "CC(C)(C(=O)NCc1cc(Cl)c(C2CCC(=O)NC2=O)c(Cl)c1)c1ccnc(C(F)(F)F)c1 (stereo not drawn)", "measurement target": "NEK7 (Homo sapiens (Human), UniProt Q8TDX7+Q96SW2)", "recorded result": "> 75%"}
{"compound": "CC(C)(C(=O)NCc1cc(Cl)c(C2CCC(=O)NC2=O)c(Cl)c1)c1cc[nH]c(=O)c1 (stereo not drawn)", "measurement target": "NEK7 (Homo sapiens (Human), UniProt Q8TDX7+Q96SW2)", "recorded result": "> 75%"}
{"compound": "CC(C)(C(=O)NCc1cc(Cl)c(C2CCC(=O)NC2=O)c(Cl)c1)c1ccc(OC(F)(F)F)nn1 (stereo not drawn)", "measurement target": "NEK7 (Homo sapiens (Human), UniProt Q8TDX7+Q96SW2)", "recorded result": "> 75%"}
{"compound": "COc1cnc(C(C)(C)C(=O)NCc2cc(F)c(C3CCC(=O)NC3=O)c(Cl)c2)cn1 (stereo not drawn)", "measurement target": "NEK7 (Homo sapiens (Human), UniProt Q8TDX7+Q96SW2)", "recorded result": "> 75%"}
{"compound": "CC(C)(C(=O)NCc1cc(Cl)c([C@H]2CCC(=O)NC2=O)c(Cl)c1)c1ncccn1 (single isomer, unassigned)", "measurement target": "NEK7 (Homo sapiens (Human), UniProt Q8TDX7+Q96SW2)", "recorded result": "> 75%"}
{"compound": "CC(C)(C(=O)NCc1cc(Cl)c(C2CCC(=O)NC2=O)c(Cl)c1)c1ccc2c(c1)S(=O)(=O)NC2 (stereo not drawn)", "measurement target": "NEK7 (Homo sapiens (Human), UniProt Q8TDX7+Q96SW2)", "recorded result": "> 75%"}
{"compound": "CC(C)(C(=O)NCc1cc(Cl)c(C2CCC(=O)NC2=O)c(Cl)c1)c1ccc2ocnc2c1 (stereo not drawn)", "measurement target": "NEK7 (Homo sapiens (Human), UniProt Q8TDX7+Q96SW2)", "recorded result": "> 75%"}
{"compound": "CC(C)(C(=O)NCc1cc(Cl)c(C2CCC(=O)NC2=O)c(Cl)c1)c1ccccc1F (stereo not drawn)", "measurement target": "NEK7 (Homo sapiens (Human), UniProt Q8TDX7+Q96SW2)", "recorded result": "> 75%"}
{"compound": "CC(C)(C(=O)NCc1cc(Cl)c(C2CCC(=O)NC2=O)c(Cl)c1)c1ccc(S(N)(=O)=O)cc1 (stereo not drawn)", "measurement target": "NEK7 (Homo sapiens (Human), UniProt Q8TDX7+Q96SW2)", "recorded result": "> 75%"}
{"compound": "CC(C)(C(=O)NCc1cc(Cl)c(C2CCC(=O)NC2=O)c(Cl)c1)c1ccc(F)cc1 (stereo not drawn)", "measurement target": "NEK7 (Homo sapiens (Human), UniProt Q8TDX7+Q96SW2)", "recorded result": "> 75%"}
{"compound": "CC(C)(C(=O)NCc1cc(Cl)c(C2CCC(=O)NC2=O)c(Cl)c1)c1cc2cccnc2cn1 (stereo not drawn)", "measurement target": "NEK7 (Homo sapiens (Human), UniProt Q8TDX7+Q96SW2)", "recorded result": "> 75%"}
{"compound": "CC(C)(C(=O)NCc1cc(Cl)c(C2CCC(=O)NC2=O)c(Cl)c1)c1ccn2ccnc2c1 (stereo not drawn)", "measurement target": "NEK7 (Homo sapiens (Human), UniProt Q8TDX7+Q96SW2)", "recorded result": "> 75%"}
{"compound": "CC(C)(C(=O)NCc1cc(F)c(C2CCC(=O)NC2=O)c(Cl)c1)c1ccc(OCC(F)F)nc1 (stereo not drawn)", "measurement target": "NEK7 (Homo sapiens (Human), UniProt Q8TDX7+Q96SW2)", "recorded result": "> 75%"}
{"compound": "CC(C)(C(=O)NCc1cc(Cl)c(C2CCC(=O)NC2=O)c(Cl)c1)c1nocc1C(F)(F)F (stereo not drawn)", "measurement target": "NEK7 (Homo sapiens (Human), UniProt Q8TDX7+Q96SW2)", "recorded result": "> 75%"}
{"compound": "Cc1coc(C(C)(C)C(=O)NCc2cc(F)c(C3CCC(=O)NC3=O)c(Cl)c2)n1 (stereo not drawn)", "measurement target": "NEK7 (Homo sapiens (Human), UniProt Q8TDX7+Q96SW2)", "recorded result": "50 to 75%"}
{"compound": "COc1ccc(C(C)(C)C(=O)NCc2cc(F)c(C3CCC(=O)NC3=O)c(Cl)c2)cn1 (stereo not drawn)", "measurement target": "NEK7 (Homo sapiens (Human), UniProt Q8TDX7+Q96SW2)", "recorded result": "> 75%"}
{"compound": "COc1nccc(C(C)(C)C(=O)NCc2cc(Cl)c(C3CCC(=O)NC3=O)c(Cl)c2)n1 (stereo not drawn)", "measurement target": "NEK7 (Homo sapiens (Human), UniProt Q8TDX7+Q96SW2)", "recorded result": "50 to 75%"}
{"compound": "CC(C)(C(=O)NCc1cc(Cl)c(C2CCC(=O)NC2=O)c(Cl)c1)c1nccc(C(F)(F)F)n1 (stereo not drawn)", "measurement target": "NEK7 (Homo sapiens (Human), UniProt Q8TDX7+Q96SW2)", "recorded result": "> 75%"}
{"compound": "CC(C)(C(=O)NCc1cc(Cl)c(C2CCC(=O)NC2=O)c(Cl)c1)c1ccc2cnncc2c1 (stereo not drawn)", "measurement target": "NEK7 (Homo sapiens (Human), UniProt Q8TDX7+Q96SW2)", "recorded result": "> 75%"}
{"compound": "Cc1nccc(C(C)(C)C(=O)NCc2cc(Cl)c(C3CCC(=O)NC3=O)c(Cl)c2)n1 (stereo not drawn)", "measurement target": "NEK7 (Homo sapiens (Human), UniProt Q8TDX7+Q96SW2)", "recorded result": "50 to 75%"}
{"compound": "CC(C)(C(=O)NCc1cc(Cl)c(C2CCC(=O)NC2=O)c(Cl)c1)c1ncc(C2COC2)cn1 (stereo not drawn)", "measurement target": "NEK7 (Homo sapiens (Human), UniProt Q8TDX7+Q96SW2)", "recorded result": "50 to 75%"}
{"compound": "CC(C)(C(=O)NCc1cc(Cl)c(C2CCC(=O)NC2=O)c(Cl)c1)c1ccc2nnccc2c1 (stereo not drawn)", "measurement target": "NEK7 (Homo sapiens (Human), UniProt Q8TDX7+Q96SW2)", "recorded result": "> 75%"}
{"compound": "CC(C)(C(=O)NCc1cc(Cl)c(C2CCC(=O)NC2=O)c(Cl)c1)c1ccncc1 (stereo not drawn)", "measurement target": "NEK7 (Homo sapiens (Human), UniProt Q8TDX7+Q96SW2)", "recorded result": "> 75%"}
{"compound": "COc1ccc(C(C)(C)C(=O)NCc2cc(Cl)c(C3CCC(=O)NC3=O)c(Cl)c2)nn1 (stereo not drawn)", "measurement target": "NEK7 (Homo sapiens (Human), UniProt Q8TDX7+Q96SW2)", "recorded result": "> 75%"}
{"compound": "Cn1cncc1C(C)(C)C(=O)NCc1cc(Cl)c(C2CCC(=O)NC2=O)c(Cl)c1 (stereo not drawn)", "measurement target": "NEK7 (Homo sapiens (Human), UniProt Q8TDX7+Q96SW2)", "recorded result": "50 to 75%"}
